Observed AC50 values for Motilin receptor (Homo sapiens) are listed in what follows.

Take a look at these entries with their results.
compound=COc1ccc(/C=C/C(=O)Nc2ccccc2C(=O)O)cc1OC measured_target="Motilin receptor (Homo sapiens)" measured_attribute=AC50 value_reported="> 30 µM"
compound=Clc1ccc2c(c1)C(c1ccccc1)=NCc1nncn1-2 measured_target="Motilin receptor (Homo sapiens)" measured_attribute=AC50 value_reported="> 10 µM"
compound=NC(=O)c1ncn([C@@H]2O[C@H](CO)[C@@H](O)[C@H]2O)n1 measured_target="Motilin receptor (Homo sapiens)" measured_attribute=AC50 value_reported="> 10 µM"

Reported AC50 for Motilin receptor (Homo sapiens), given Cc1cnc(NC(=O)C2=C(O)c3ccccc3S(=O)(=O)N2C)s1 ?
> 10 µM

Reported AC50 for Motilin receptor (Homo sapiens), given CCCN(CCC)CCc1cccc2c1CC(=O)N2 ?
> 30 µM

Reported AC50 for Motilin receptor (Homo sapiens), given CC(NCCc1ccc(O)cc1)C(O)c1ccc(O)cc1 (stereo not given) ?
> 30 µM

* * *

Below, each entry is listed alongside its reported AC50.
target: Motilin receptor (Homo sapiens); further: assay procedure not described here
Sequence (O43193 whole entry): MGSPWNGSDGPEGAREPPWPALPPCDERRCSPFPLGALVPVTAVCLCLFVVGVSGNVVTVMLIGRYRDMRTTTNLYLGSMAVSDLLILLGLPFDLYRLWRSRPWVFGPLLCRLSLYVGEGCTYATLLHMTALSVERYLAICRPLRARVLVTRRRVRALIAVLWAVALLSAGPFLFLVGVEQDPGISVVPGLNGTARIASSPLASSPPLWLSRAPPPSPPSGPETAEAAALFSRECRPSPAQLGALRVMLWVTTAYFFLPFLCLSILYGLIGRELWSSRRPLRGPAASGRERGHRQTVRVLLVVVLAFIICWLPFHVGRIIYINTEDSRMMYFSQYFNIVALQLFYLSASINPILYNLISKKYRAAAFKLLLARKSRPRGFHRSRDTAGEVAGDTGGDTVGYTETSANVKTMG

Take a look at these entries with their results.
compound="COCCOC(=O)C1=C(C)NC(C)=C(C(=O)OC/C=C/c2ccccc2)C1c1cccc([N+](=O)[O-])c1 (stereo unspecified) [CILNIDIPINE]" value_reported="24 µM"
compound="O=C(O)c1cc(O)c2c3nc4ccccc4oc-3cc(=O)c2n1 [PIRENOXINE]" value_reported="> 30 µM"
compound="CCCCNc1ccc(C(=O)OCCN(C)C)cc1 [TETRACAINE]" value_reported="> 10 µM"
compound="CN(C)c1cc(CNCC(C)(C)C)c(O)c2c1C[C@H]1C[C@H]3[C@H](N(C)C)C(O)=C(C(N)=O)C(=O)[C@@]3(O)C(O)=C1C2=O [OMADACYCLINE]" value_reported="> 30 µM"

Reported AC50 for Motilin receptor (Homo sapiens), given CCC(C)(Oc1ccc(C2(c3ccc(OC(C)(CC)C(=O)O)cc3)CCCCC2)cc1)C(=O)O (stereo unspecified) [CLINOFIBRATE] ?
> 30 µM

Reported AC50 for Motilin receptor (Homo sapiens), given CC(C)(C)NC[C@H](O)COc1nsnc1N1CCOCC1 [TIMOLOL] ?
> 30 µM

* * *

target: 3',5'-cyclic-AMP phosphodiesterase 4A (Homo sapiens); assay type: functional; further: assay procedure not described here
Sequence (P27815 whole entry): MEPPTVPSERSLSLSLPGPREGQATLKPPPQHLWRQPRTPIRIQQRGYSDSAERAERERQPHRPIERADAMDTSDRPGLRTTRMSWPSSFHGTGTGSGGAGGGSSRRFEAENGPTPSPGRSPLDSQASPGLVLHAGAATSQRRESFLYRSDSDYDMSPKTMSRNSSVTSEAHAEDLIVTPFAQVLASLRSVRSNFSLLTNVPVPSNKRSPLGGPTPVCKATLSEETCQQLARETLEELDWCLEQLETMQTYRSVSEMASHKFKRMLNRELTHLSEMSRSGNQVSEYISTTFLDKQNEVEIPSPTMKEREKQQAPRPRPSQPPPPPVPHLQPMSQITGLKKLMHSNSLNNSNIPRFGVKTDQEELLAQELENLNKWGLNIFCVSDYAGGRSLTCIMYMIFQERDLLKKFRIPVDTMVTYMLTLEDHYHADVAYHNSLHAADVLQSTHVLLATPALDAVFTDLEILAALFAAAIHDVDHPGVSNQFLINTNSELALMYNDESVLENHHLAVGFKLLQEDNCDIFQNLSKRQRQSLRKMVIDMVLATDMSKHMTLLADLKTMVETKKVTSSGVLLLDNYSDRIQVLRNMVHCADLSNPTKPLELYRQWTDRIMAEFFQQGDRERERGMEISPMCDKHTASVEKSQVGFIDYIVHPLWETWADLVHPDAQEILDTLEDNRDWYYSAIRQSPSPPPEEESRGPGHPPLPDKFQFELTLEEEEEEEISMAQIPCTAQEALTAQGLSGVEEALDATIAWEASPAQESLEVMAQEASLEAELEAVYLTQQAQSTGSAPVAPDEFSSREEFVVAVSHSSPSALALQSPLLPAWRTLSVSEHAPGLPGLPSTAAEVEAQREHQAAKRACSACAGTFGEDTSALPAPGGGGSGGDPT
measured.attribute: AC50

Take a look at these entries with their results.
molecule=CC[N+](C)(CC)CCOC(=O)C1c2ccccc2Oc2ccccc21 value_reported="> 30 µM"
molecule="CCOc1cc(N)c(Cl)cc1C(=O)NCC1CN(Cc2ccc(F)cc2)CCO1 (stereo not drawn) [MOSAPRIDE]" value_reported="> 30 µM"

Next item in the queue.
// lookup AC50 for CCCCCCCCCCCCCCCCCC(=O)NCCCC[C@H](NC(=O)CC[C@@H](NC(=O)[C@H](C)NC(=O)[C@@H](C)O[C@H]1[C@H](O)[C@@H](CO)OC(O)[C@@H]1NC(C)=O)C(N)=O)C(=O)O (stereo partly drawn) [ROMURTIDE]
> 3 µM

* * *

molecular target: 5-hydroxytryptamine receptor 1A (Homo sapiens); assay type: functional, cell-based; further: assay procedure not described here
Sequence (P08908 whole entry): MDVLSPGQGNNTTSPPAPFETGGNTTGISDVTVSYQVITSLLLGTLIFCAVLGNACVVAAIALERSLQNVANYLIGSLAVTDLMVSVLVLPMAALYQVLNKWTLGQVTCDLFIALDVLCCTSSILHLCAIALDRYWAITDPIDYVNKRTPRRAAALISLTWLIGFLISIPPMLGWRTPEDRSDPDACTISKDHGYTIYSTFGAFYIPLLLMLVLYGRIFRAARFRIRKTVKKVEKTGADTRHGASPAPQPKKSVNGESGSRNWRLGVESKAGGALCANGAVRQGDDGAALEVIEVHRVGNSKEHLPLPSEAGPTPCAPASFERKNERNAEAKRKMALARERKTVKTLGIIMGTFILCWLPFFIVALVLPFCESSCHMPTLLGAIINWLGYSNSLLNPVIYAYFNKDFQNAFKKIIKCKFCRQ
measured.attribute: AC50

molecule=Cc1ccc(NC(=O)C2(c3ccc4c(c3)OC(F)(F)O4)CC2)nc1-c1cccc(C(=O)O)c1 measured_attribute=AC50 value_reported="> 30 µM"

// lookup AC50 for CC(CCc1ccccc1)NC(C)C(O)c1ccc(O)cc1 (centres undefined)
12 µM
